test system: Botrtyis cinerea (Bc); test: Growth inhibition assay of fungal pathogens; assay type: cell-based; conditions: 48 h, Table 4a, read-out: Concentration at 90% Inhibition Bc
endpoint name: IC90 (µg/mL)
Dear colleague, please return just the value in µg/mL, with no unit written.

Prompt line: Note IC90 for the compound shown: COc1ccc(F)cc1[C@H](Cn1c(=O)n(C(C)(C)C(=O)NC(C)C)c(=O)c2c(C)c(-n3cccn3)sc21)OC1CCC(=O)CC1 [Compound I-26]
Response line: 0.4

Prompt line: Look up and state reported IC90 for COc1ccccc1[C@H](Cn1c(=O)n(C(C)(C)C(=O)NC(C)C)c(=O)c2c(C)c(-n3cccn3)sc21)OC(C)C [Compound I-17]
Response line: 2

Prompt line: Respond only with IC90 recorded for COc1ccc(F)cc1[C@H](Cn1c(=O)n(C(C)(C)C(=O)N2CCCCC2)c(=O)c2c(C)c(-n3cccn3)sc21)OC(C)C [Compound I-2]
Response line: 0.4

Prompt line: Tell me IC90 reported for COc1ccc(F)cc1[C@H](Cn1c(=O)n(C(C)(C)C(=O)NC(C)C)c(=O)c2c(C)c(-n3cccn3)sc21)OC(C)C.I [Compound I-1]
Response line: 0.4

Prompt line: Give reported IC90 value for COc1ccc(F)cc1[C@H](Cn1c(=O)n(C(C)C(=O)NC(C)C)c(=O)c2c(C)c(-n3cccn3)sc21)OC(C)C (stereo partly shown) [Compound I-29]
Response line: 2

Prompt line: Identify the reported IC90 for the following entry. COc1ccccc1[C@H](Cn1c(=O)n(C(C)(C)C(=O)N2CCCCC2)c(=O)c2c(C)c(-n3cccn3)sc21)OC(C)C [Compound I-19]
Response line: 0.4

Prompt line: Write down IC90 measured for item COc1ccccc1[C@H](Cn1c(=O)n(C(C)(C)C(=O)N2CCCCC2)c(=O)c2c(C)c(-n3cccn3)sc21)OCC(C)C [Compound I-23]
Response line: 2

Prompt line: Please supply the value of reported IC90 for the item COc1ccccc1[C@H](Cn1c(=O)n(C(C)(C)C(=O)NC(C)C)c(=O)c2c(C)c(-n3cccn3)sc21)OCC(C)C [Compound I-21]
Response line: 2

Prompt line: Assign IC90 to the following record: COc1ccc(F)cc1[C@H](Cn1c(=O)n(C(C)(C)C(=O)N2CCCC2)c(=O)c2c(C)c(-n3cccn3)sc21)OC1CCC(=O)CC1 [Compound I-27]
Response line: 2

Prompt line: Give me measured IC90, please, for this compound: COc1ccccc1[C@H](Cn1c(=O)n(C(C)(C)C(=O)N2CCCC2)c(=O)c2c(C)c(-n3cccn3)sc21)OC(C)C [Compound I-18]
Response line: 2

Prompt line: Return IC90 for the following compound: COc1ccccc1[C@H](Cn1c(=O)n(C(C)(C)C(=O)N2CCCC2)c(=O)c2c(C)c(-n3cccn3)sc21)OCC(C)C [Compound I-22]
Response line: 2

Prompt line: Specify reported IC90 for the compound shown: COc1ccc(F)cc1[C@H](Cn1c(=O)n(C(C)(C)C(=O)NC(C)C)c(=O)c2c(C)c(-n3cccn3)sc21)OCCO [Compound I-35]
Response line: 2

Prompt line: Give the reported IC90 for this compound. COc1ccc(F)cc1[C@H](Cn1c(=O)n([C@@H](C)C(=O)N2CCCC2)c(=O)c2c(C)c(-n3cccn3)sc21)OC(C)C [Compound I-31]
Response line: 0.4

Prompt line: Look up and report measured IC90 for this entry: COc1ccc(F)cc1[C@H](Cn1c(=O)n(C(C)(C)C(N)=O)c(=O)c2c(C)c(-n3cccn3)sc21)OC1CCOCC1 [Compound I-4]
Response line: 2

Prompt line: Give recorded IC90. COc1ccc(F)cc1[C@H](Cn1c(=O)n(C(C)C(=O)N2CCCC2)c(=O)c2c(C)c(-n3cccn3)sc21)OC(C)C (stereo partly shown) [Compound I-32]
Response line: 0.4

Prompt line: Give reported IC90 value for CCO[C@@H](Cn1c(=O)n(C(C)(C)C(=O)NC(C)C)c(=O)c2c(C)c(-n3cccn3)sc21)c1cc(F)ccc1OC [Compound I-33]
Response line: 2

Prompt line: Please look at this compound and report its IC90: COc1ccc(F)cc1[C@H](Cn1c(=O)n(C(C)(C)C(=O)N2CCCC2)c(=O)c2c(C)c(-n3cccn3)sc21)OC1CCOCC1 [Compound I-7]
Response line: 2

// data source = patent US10941158B2
